Target: T1, PUF4 RNA-binding domain (Saccharomyces cerevisiae, UniProt P25339 537-888)
T1 sequence: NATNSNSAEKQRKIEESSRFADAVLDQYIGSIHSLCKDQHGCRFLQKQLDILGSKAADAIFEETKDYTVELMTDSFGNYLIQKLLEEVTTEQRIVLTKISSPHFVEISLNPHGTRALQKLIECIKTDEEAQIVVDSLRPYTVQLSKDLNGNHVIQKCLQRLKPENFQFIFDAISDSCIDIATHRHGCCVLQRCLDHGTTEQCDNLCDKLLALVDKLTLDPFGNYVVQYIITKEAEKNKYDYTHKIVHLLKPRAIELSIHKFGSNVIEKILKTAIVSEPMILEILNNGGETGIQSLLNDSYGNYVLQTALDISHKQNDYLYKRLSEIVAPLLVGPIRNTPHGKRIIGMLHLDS
Assay: Mg; RNA-MaP; 20 mM Na-HEPES pH 7.4, 30 mM KOAc, 0.75 mM MgCl2, 0.1% Tween-20, 5% glycerol, 0.1 mg/mL BSA, 2 mM DTT; 25 C; 0.0125-409.6 nM protein
Conditions: tags: N-His6-TEV cleaved; C-SNAP kept, Cy3B-labelled; label: tethered on chip by stalled RNA polymerase
The reader will find reported Kd values listed item by item below.
Report as a plain number; the unit nM is understood.

Binder	Kd, nM
UCUCUUCAUAUAUAUAGGUCUCUU (ssRNA) [Id_ii_S1_P3E.3_K3.2_C3.2_[T-1A]_H3.2_A3.1_F3.1_T3.2_[T9G]_[A10G]]	804
UCUCUUGUUGUAUAUAAUUCUCUU (ssRNA) [Id_ii_S1_P3E.2_K3.1_C3.2_[C-2G]_H3.1_A3.1_F3.1_T3.2_[T9A]_[A10T]]	9.55

Turning now to a further record.
Prompt: // query Kd value for entry UCUCUUAGUAUAUAUAGUUCUCUU (ssRNA) [Id_ii_S1_P3E.3_K3.2_C3.2_[C-2A]_[T-1G]_H3.2_A3.1_F3.1_T3.2_[T9G]_[A10T]]
Response: 156
